Test system: HCT-116
Assay: Growth inhibition of human HCT116 cells assessed as cell growth at 10^-6 M by sulforhodamine B assay
Format: functional
Conditions: read-out: Activity
OBSERVATION TYPE: growth at 1 µM (%)
// return numeric value only (unit: %, not printed)

## Input Fill blank: measured growth at 1 µM of the compound CC(C)=CC(=O)O[C@@H]1CC(C)(C)C[C@H]2C3=CC[C@@H]4[C@@]5(C)CCC(=O)C(C)(C)[C@@H]5CC[C@@]4(C)[C@]3(C)CC[C@@]12C(=O)O is ____.
## Output 70

----------
Measured CC50 values are reported for all entries that follow.
Tested on: A498
Assay: Growth inhibition of human A498 cells by sulforhodamine B assay
Type: functional
Settings: read-out: LC50 (the source's name)
Quick note: give the figure in µM, leave out the unit.

Please review the entries below; each comes with its answer.
## Input Param item = CC1(C)C[C@@H](O)[C@]2(C(=O)O)CC[C@]3(C)C(=CC[C@@H]4[C@@]5(C)C/C(=C\C=C\c6ccccc6)C(=O)C(C)(C)[C@@H]5CC[C@]43C)[C@@H]2C1 ; retrieve measured CC50.
## Output 35.2

## Input Lookup CC(C)=CC(=O)O[C@@H]1CC(C)(C)C[C@H]2C3=CC[C@@H]4[C@@]5(C)CC[C@H](O)C(C)(C)[C@@H]5CC[C@@]4(C)[C@]3(C)CC[C@@]12C(=O)O [Reduced Lantadene B]
## Output 41.3

Kindly consider the entry below.
## Input Sample C/C=C(/C)C(=O)O[C@@H]1CC(C)(C)C[C@H]2C3=CC[C@@H]4[C@@]5(C)CC[C@H](O)C(C)(C)[C@@H]5CC[C@@]4(C)[C@]3(C)CC[C@@]12C(=O)O [Reduced Lantadene A] — what was its CC50?
## Output 7.38

----------
Overview of reported growth at 100 µM across a group of compounds:
Tested on: U-251
Assay: Growth inhibition of human U251 cells assessed as cell growth at 10^-4 M by sulforhodamine B assay
Format: functional
Conditions: read-out: Activity
All answers are understood in %, so give the number only.

Here is how some compounds turned out for growth at 100 µM.
## Input Return reported growth at 100 µM; argument: CC(C)=CC(=O)O[C@@H]1CC(C)(C)C[C@H]2C3=CC[C@@H]4[C@@]5(C)CC[C@H](O)C(C)(C)[C@@H]5CC[C@@]4(C)[C@]3(C)CC[C@@]12C(=O)O [Reduced Lantadene B]
## Output -61

## Input Same again, this time with C/C=C(/C)C(=O)O[C@@H]1CC(C)(C)C[C@H]2C3=CC[C@@H]4[C@@]5(C)CCC(=O)C(C)(C)[C@@H]5CC[C@@]4(C)[C@]3(C)CC[C@@]12C(=O)O [LANTADENE A]
## Output 6

## Input Also need CC(C)=CC(=O)O[C@@H]1CC(C)(C)C[C@H]2C3=CC[C@@H]4[C@@]5(C)CCC(=O)C(C)(C)[C@@H]5CC[C@@]4(C)[C@]3(C)CC[C@@]12C(=O)O , thanks.
## Output -49

## Input Then what about the compound CC1(C)C[C@@H](O)[C@]2(C(=O)O)CC[C@]3(C)C(=CC[C@@H]4[C@@]5(C)C/C(=C\C=C\c6ccccc6)C(=O)C(C)(C)[C@@H]5CC[C@]43C)[C@@H]2C1 ?
## Output -79

We now examine a further compound.
## Input For the compound C/C=C(/C)C(=O)O[C@@H]1CC(C)(C)C[C@H]2C3=CC[C@@H]4[C@@]5(C)CC[C@H](O)C(C)(C)[C@@H]5CC[C@@]4(C)[C@]3(C)CC[C@@]12C(=O)O [Reduced Lantadene A] , what growth at 100 µM is on record?
## Output -52
